target: IDH1 R132H (Homo sapiens, UniProt O75874, R132H); assay: High Throughput Screening (HTS) for IDH1 R132H inhibitors (resazurin/NADPH fluorescence assay); type: biochemical; settings: IDH1m; assay similar to Example 1; class symbols
Sequence (O75874 whole entry R132H): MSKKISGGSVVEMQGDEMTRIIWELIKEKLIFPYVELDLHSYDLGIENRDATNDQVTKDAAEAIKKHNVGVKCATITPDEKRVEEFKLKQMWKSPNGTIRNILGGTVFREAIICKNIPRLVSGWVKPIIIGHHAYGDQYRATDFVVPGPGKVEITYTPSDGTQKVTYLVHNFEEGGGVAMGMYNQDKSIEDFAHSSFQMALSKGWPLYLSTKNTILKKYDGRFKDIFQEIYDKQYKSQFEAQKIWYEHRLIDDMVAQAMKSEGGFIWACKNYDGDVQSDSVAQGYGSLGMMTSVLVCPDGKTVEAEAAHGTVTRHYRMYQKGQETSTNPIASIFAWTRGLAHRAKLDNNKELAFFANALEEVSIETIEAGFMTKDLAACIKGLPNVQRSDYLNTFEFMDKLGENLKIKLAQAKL
pIC50: −log10 of the molar value.
Listed below: pIC50 values for each entry.

Past entries and their recorded results:
CCCCc1ccc(NS(=O)(=O)c2ccc(C)c(C(=O)N3CCN(c4cccnc4OC)CC3)c2)cc1: 4.30 to 6.00
CCCCc1ccc(NS(=O)(=O)c2ccc(C)c(C(=O)N3CCN(C(=O)Oc4ccccc4)CC3)c2)cc1: 4.30 to 6.00
CCCCc1ccc(NS(=O)(=O)c2ccc(F)c(C(=O)N3CCN(c4ccccc4OC)CC3)c2)cc1: 4.30 to 6.00
COCOc1ccc(NS(=O)(=O)c2ccc(C)c(C(=O)N3CCN(c4ccccc4OC)CC3)c2)cc1: 4.30 to 6.00
CCCCc1ccc(NS(=O)(=O)c2ccc(C)c(C(=O)N3CCN(C(=O)c4cscn4)CC3)c2)cc1: 4.30 to 6.00
COc1ccc(NS(=O)(=O)c2ccc(C)c(C(=O)N3CCN(c4ccccn4)CC3)c2)cc1: < 4.30

Summary: `CCCCc1ccc(NS(=O)(=O)c2cccc(C(=O)N3CCN(c4ccnc5[nH]ccc45)CC3)c2)cc1` , IDH1 R132H (Homo sapiens, UniProt O75874, R132H), pIC50 = 4.30 to 6.00

Summary: `CCCCc1ccc(NS(=O)(=O)c2ccc(C)c(C(=O)N3CCN(c4c(Cl)cccc4Cl)CC3)c2)cc1` , IDH1 R132H (Homo sapiens, UniProt O75874, R132H), pIC50 = 4.30 to 6.00

Summary: `CCc1ccc(NS(=O)(=O)c2ccc(C)c(C(=O)N3CCN(c4ccccc4OC)CC3)c2)cc1` , IDH1 R132H (Homo sapiens, UniProt O75874, R132H), pIC50 = 4.30 to 6.00
